# Protocol: refractive index (Na D-line) (dimensionless)
# Condition description: 303.15 K; 101.33 kPa; Liquid; Standard Abbe refractometry
Readings of refractive index for the listed compounds
Give the figure by itself; no unit, no explanation.

See these solved cases before continuing.
Compound	Reported value
CC(C)COC(=O)[C@@H](N)C(C)C.CCCCCCCCCCCCOS(=O)(=O)O [isobutyl L-valinate dodecyl sulfate]	1.4519
CC(C)OC(=O)CC[C@H]([NH3+])C(=O)OC(C)C.CCCCCCCCCCCCOS(=O)(=O)[O-]	1.4528
CC(C)OC(=O)[C@@H]([NH3+])C(C)C.CCCCCCCCCCCCOS(=O)(=O)[O-]	1.4514

Input line: Fill blank: measured refractive index of the compound CC(C)COC(=O)[C@@H]1CCC[NH2+]1.CCCCCCCCCCCCOS(=O)(=O)[O-] [(S)-2-(isobutoxycarbonyl)pyrrolidinium dodecyl sulfate] is ____.
Output line: 1.4574

Input line: Fill blank: measured refractive index of the compound CC(C)OC(=O)[C@@H]1CCC[NH2+]1.CCCCCCCCCCCCOS(=O)(=O)[O-] [(S)-2-(isopropoxycarbonyl)pyrrolidin-1-ium dodecyl sulfate] is ____.
Output line: 1.4525

Input line: Fill blank: measured refractive index of the compound CC(C)COC(=O)C[NH3+].CCCCCCCCCCCCOS(=O)(=O)[O-] [2-isobutoxy-2-oxoethan-1-aminium dodecyl sulfate] is ____.
Output line: 1.4624

Input line: Fill blank: measured refractive index of the compound CC(C)OC(=O)C[NH3+].CCCCCCCCCCCCOS(=O)(=O)[O-] [2-isopropoxy-2-oxoethan-1-aminium dodecyl sulfate] is ____.
Output line: 1.463

Input line: Fill blank: measured refractive index of the compound CC(C)COC(=O)[C@H](C)[NH3+].CCCCCCCCCCCCOS(=O)(=O)[O-] [(S)-1-isobutoxy-1-oxopropan-2-aminium dodecyl sulfate] is ____.
Output line: 1.45
